Tested on: Aedes aegypti
Experimental Details: Repellency on treated membrane-covered blood-filled wells
Type: in vivo
Particulars: 7% in isopropanol; relative to control, 20 min
As shown below, each of these molecules has a reported Avg % Repellency value.
Test Readout: Avg % Repellency (%)

Molecule	Recorded Number
CCCCCCOC(=O)CC1CCC(=O)C1CCCCC (stereo not shown) [Hexyl Dihydrojamonate]	66.1
CCCCCC1C(=O)CCC1CC(C)=O (stereo not shown) [amyl cyclopentanone propanone]	100
CCCCCCCCCC1CCCC(=O)O1 (stereo not shown) [delta-tetradecalactone]	97.3
CCCCCCCC1CCCC(=O)O1 (stereo not shown) [delta-dodecalactone]	100
CCCCCC1C(=O)CCC1CC(=O)OCC=C(C)C (stereo not shown) [Prenyl Dihydrojasmonate]	92.6
CCCCCCCCCC1CCC(=O)O1 (stereo not shown) [gamma-tridecalactone]	97.5
CCC(C)=CCCC(C)=CCC1CCCC1O (stereo not shown) [methyl apritol]	91.9
CC(C)CCCC(C)CCC1CCCC1=O (stereo not shown) [tetrahydroapritone]	93.7
CC1CCC(C(C)(C)O)C(O)C1 (stereo not shown) [PMD, p-Menthane-3,8-diol, reference compound]	79.2
CCCCCC1C(O)CCC1CCO (stereo not shown) [dihydrojasmindiol]	84.3

###

System: Aedes aegypti
Experimental Details: Repellency on treated membrane-covered blood-filled wells
Format: in vivo
Particulars: 7% in isopropanol; relative to control, 20 min
Procedure: The invention is illustrated by, but not limited to, the following examples. • Five replicates of 250 adult female mosquitoes each were placed in clear plastic cages with access to five warmed, blood-filled, membrane-covered wells. The mosquitoes were Aedes aegypti unless otherwise noted. Membranes were treated with repellent. Five replicates were tested. […] The number of mosquitoes probing each well was recorded at two minute intervals for 20 minutes. […]
As shown below, each of these compounds has a reported Avg % Repellency value.

Compound	Readout Unit	Avg % Repellency
CCCCCC1C(O)CCC1CC(=O)OCC=C(C)C (centres unmarked) [Prenyl Dihydrojasmolate]	%	92.2
CCCCCCCCCCC1CCC(=O)O1 (centres unmarked) [gamma-tetradecalactone]	%	98.9
CCCCCC1C(O)CCC1CC(=O)OC (centres unmarked) [Methyl Dihydrojasmolate]	%	100
CCCCCC1C(O)CCC1CC(=O)OCC (centres unmarked) [Ethyl Dihydrojasmolate]	%	100
CCCCCC1C(=O)CCC1CC(=O)OCCC (centres unmarked) [Propyl Dihydrojasmonate]	%	95.6

###

As shown below, each of these compounds has a reported Avg # Probes value.
System: Aedes aegypti
Experimental Details: Repellency on treated membrane-covered blood-filled wells
Assay type: in vivo
Particulars: 7% in isopropanol; 20 min
Experimental: The invention is illustrated by, but not limited to, the following examples. • Five replicates of 250 adult female mosquitoes each were placed in clear plastic cages with access to five warmed, blood-filled, membrane-covered wells. The mosquitoes were Aedes aegypti unless otherwise noted. Membranes were treated with repellent. Five replicates were tested. […] The number of mosquitoes probing each well was recorded at two minute intervals for 20 minutes. […]

Compound	Subject Of Test	Avg # Probes
CCC(C)=CCCC(C)=CCC1CCCC1O (stereo not shown) [methyl apritol]	Aedes aegypti	6.6
CCCCCCCCC1CCC(=O)O1 (stereo not shown) [gamma-dodecalactone]	Aedes aegypti	0
CCCCCC1C(=O)CCC1CC(=O)OCCC (stereo not shown) [Propyl Dihydrojasmonate]	Aedes aegypti	2.6
CCCCCC1C(O)CCC1CC(=O)OCC=C(C)C (stereo not shown) [Prenyl Dihydrojasmolate]	Aedes aegypti	3.2
CCCCCCCCCC1CCC(=O)O1 (stereo not shown) [gamma-tridecalactone]	Aedes aegypti	1.8
CCCCCC1CCC(=O)O1 (stereo not shown) [gamma-nonalactone]	Aedes aegypti	20.4
CC/C(C)=C/CC/C(C)=C/CC1CCCC1=O (stereo not shown) [methyl apritone]	Aedes aegypti	7.6
CCC(C)CCCC(C)CCC1CCCC1=O (stereo not shown) [tetrahydromethyl apritone]	Aedes aegypti	11
CCCCCCCCCCC1CCC(=O)O1 (stereo not shown) [gamma-tetradecalactone]	Aedes aegypti	0.8
CCCCCC1C(=O)CCC1CC(=O)OCC=C(C)C (stereo not shown) [Prenyl Dihydrojasmonate]	Aedes aegypti	2.8
CCCCCC1C(O)CCC1CCO (stereo not shown) [dihydrojasmindiol]	Aedes aegypti	7.2
CC1CCC(C(C)(C)O)C(O)C1 (stereo not shown) [PMD, p-Menthane-3,8-diol, reference compound]	Aedes aegypti	9
CCCCCCCC1CCCC(=O)O1 (stereo not shown) [delta-dodecalactone]	Aedes aegypti	0
CCCCCC1C(O)CCC1CC(=O)OC (stereo not shown) [Methyl Dihydrojasmolate]	Aedes aegypti	0
CCCCCC1C(O)CCC1CC(=O)OCC (stereo not shown) [Ethyl Dihydrojasmolate]	Aedes aegypti	0
CCCCCC1C(=O)CCC1CC(C)=O (stereo not shown) [amyl cyclopentanone propanone]	Aedes aegypti	0
CCCCCCOC(=O)CC1CCC(=O)C1CCCCC (stereo not shown) [Hexyl Dihydrojamonate]	Aedes aegypti	30.4
CC(C)CCCC(C)CCC1CCCC1=O (stereo not shown) [tetrahydroapritone]	Aedes aegypti	3.8
CCCCCCCCCC1CCCC(=O)O1 (stereo not shown) [delta-tetradecalactone]	Aedes aegypti	1.6

###

Test system: Aedes aegypti
Experimental Details: Repellency on treated membrane-covered blood-filled wells
Assay type: in vivo
Particulars: 7% in isopropanol; relative to control, 20 min
Procedure: The invention is illustrated by, but not limited to, the following examples. • Five replicates of 250 adult female mosquitoes each were placed in clear plastic cages with access to five warmed, blood-filled, membrane-covered wells. The mosquitoes were Aedes aegypti unless otherwise noted. Membranes were treated with repellent. Five replicates were tested. […] The number of mosquitoes probing each well was recorded at two minute intervals for 20 minutes. […]
As shown below, each of these compounds has a reported Avg % Repellency value.

Compound	Avg % Repellency / %
CCC(C)CCCC(C)CCC1CCCC1=O (stereo not shown) [tetrahydromethyl apritone]	74.9
CCCCCCCCC1CCC(=O)O1 (stereo not shown)	100
CC/C(C)=C/CC/C(C)=C/CC1CCCC1=O (stereo not shown)	90.4
CCCCCC1CCC(=O)O1 (stereo not shown)	77.1

###

As shown below, each of these compounds has a reported Avg % Repellency value.
Tested on: Aedes aegypti
Experimental Details: Repellency on treated membrane-covered blood-filled wells
Format: in vivo
Particulars: 5% in isopropanol; relative to control, 20 min

Compound	Avg % Repellency (%)
CCCCCCCCCC1CCC(=O)O1 (stereo not drawn)	94.4
CCCCCCC1CC(C)=CC(O)C1 (stereo not drawn)	91
CCCCCC1C(=O)CCC1CC(=O)OCCC (stereo not drawn) [Propyl Dihydrojasmonate]	97
CCCCCCCCC1(C)CCC(=O)O1 (stereo not drawn)	98
CCCCCCC1CC(=O)C=C(C)C1 (stereo not drawn)	100
CCCCCCCC1CC(=O)C=C(C)C1 (stereo not drawn)	99
CCCCCCCCCC1(C)CCC(=O)O1 (stereo not drawn)	96
CCCCCC1C(=O)CCC1CC(=O)N(CC)CC (stereo not drawn) [methyl dihydrojasmonate amide]	90.1
CCCCC1CC(=O)C=C(C)C1 (stereo not drawn)	97
